assay: Cytotoxicity against human HepDE19 cells assessed as reduction in cell viability measured after 5 days by CCK-8 method; format: functional; details: HepDE19, 120 h, time 5 day
readout-kind: CC50 (µM)
Give bare numbers, in µM.

Solved cases below.
O=C(Nc1cccc(F)c1)N1CCn2ncc(-c3ccc(F)cc3)c2C1 ... 32
O=C(Nc1ccc(Cl)cc1)N1CCn2ncc(-c3ccc(F)cc3)c2C1 ... 29
C[C@@H]1Cn2ncc(-c3ccc(F)cc3)c2CN1C(=O)Nc1ccc(F)c(Cl)c1 ... 26
O=C(Nc1ccc(Cl)c(F)c1)N1CCn2ncc(-c3ccc(F)cc3)c2C1 ... 31

Let us examine a further case.
# lookup: CC50 of O=C(Nc1ccc(F)c(Cl)c1)N1CCn2ncc(-c3ccc(F)cn3)c2C1
35
